assay.info: High Throughput Screening for Foot and Mouth Disease Virus Antivirals; also: read-out not given here; nearly all actives have a fitted effect of over 45% in size
run.conditions: FMDV antiviral cell-based qHTS; series mostly up to 57.9 µM
In all, about 410,000 compounds went through this assay and about 5,100 (1.2%) were called active. Another 8% or so got no clear call; they are omitted. Calls follow the shape of the full dose curve; tested in HEK293T cells. Many of the other results were omitted from the sample, so actives are more common in it than they were.
Select the matching outcome among active, inactive

-- ask Outcome? COc1ccc(CNC(=O)c2ccc(-c3cccnc3)c3ccoc23)cc1OC
-- reply active

-- ask What do you have for O=C(Nc1cccc(NC(=O)N2CCN(c3ccccc3)CC2)c1)N1CCN(c2ccccc2)CC1 ?
-- reply active

-- ask Now consider COc1ccc2[nH]cc(CCNc3cc(-c4ccccc4CN(C)C)ncn3)c2c1 .
-- reply inactive

-- ask Now consider COc1ccccc1C1CN(Cc2ccccc2O)Cc2ccccc2O1 (stereo not drawn) and answer again.
-- reply inactive

-- ask Similarly, Cc1ccc(S(=O)(=O)N2CCC(C(=O)Nc3cc(C)ccc3C)CC2)cc1 ?
-- reply inactive

-- ask Likewise for CC1=C(C(=O)OCc2ccccc2)C(c2ccco2)n2ncnc2N1 (stereo not drawn) ?
-- reply active

-- ask Repeat for the following compound: COc1ccc(-n2nnc(-c3nsc(NC(=O)c4ccc(C)c(C)c4)n3)c2C)cc1Cl
-- reply inactive

-- ask One more compound: COc1ccc(CCNS(=O)(=O)c2ccc(Cl)s2)cc1OC
-- reply inactive

-- ask Can you check CCCn1c(=N)n(CC(O)COc2ccccc2OC)c2ccccc21 (stereo not drawn) next?
-- reply inactive

-- ask Also, COc1ccc(CCNC(=O)CCCCn2c(=O)c3ccccc3n(Cc3ccccc3)c2=O)cc1OC please.
-- reply inactive

-- ask Try this compound too: Cc1cccn2c(=O)c(C(=O)NC(C)c3ccccc3)cnc12 (stereo not drawn)
-- reply inactive

-- ask Another compound to look at: Cn1c(=O)oc2cc(S(=O)(=O)N3CCC(C(=O)Nc4ccc(OC(F)(F)F)cc4)CC3)ccc21
-- reply inactive

-- ask # iterate: Cc1ccnc(SCCn2c(Br)nc3c2c(=O)[nH]c(=O)n3C)n1
-- reply inactive

-- ask Item: COc1ccccc1NC(=O)c1oc2ccccc2c1NC(=O)COc1ccccc1OC
-- reply inactive

-- ask Same thing, different compound: O=c1ccc2c(-c3ccccc3S(=O)(=O)O)c3ccc(O)c(O)c3oc-2c1O
-- reply active

-- ask Request: CCOc1ccc2nc(N3CCCN(CCCn4cccn4)CC3)nc(C)c2c1
-- reply inactive

-- ask What about this compound? CCc1nccn1S(=O)(=O)c1cc(Br)ccc1Br
-- reply inactive

-- ask Also COC(=O)N1CCC[C@@]2(CCN(C(=O)NC(C)C)C2)C1 , if possible.
-- reply inactive

-- ask Same lookup for Cn1c(=O)c2c(nc(Br)n2CCSc2nc3ccccc3o2)n(C)c1=O , please.
-- reply inactive

-- ask And the next one, CN(CC(=O)Nc1cccc(C(F)(F)F)c1)S(=O)(=O)c1cccs1 ?
-- reply inactive

-- ask Same question for COc1cc(/C=C/C2=CC(C)(C)NC(=S)N2)cc(OC)c1OC please.
-- reply inactive

-- ask Also CCOc1ccc(N(Cc2ccccc2)C(=O)c2nc(S(C)(=O)=O)ncc2Cl)cc1 ?
-- reply active

-- ask Similarly, O=C(Cc1ccccc1)Nc1sc2c(c1C(=O)Nc1ccc(Br)cc1)CCC2 ?
-- reply inactive

-- ask Next up: CCOC(=O)C1=C(c2ccccc2)Nc2ncnn2C1c1ccc(Cl)cc1 (stereo not drawn)
-- reply inactive

-- ask And the next one, COc1cc(/C=C/c2ccc(/C=C/c3cc(OC)c(OC)c(OC)c3)cc2)cc(OC)c1OC ?
-- reply active

-- ask Repeat with O=C(c1csnn1)N1CCC[C@@]2(CCN(Cc3nccs3)C2)C1
-- reply inactive

-- ask Now give it for Cc1sc2ncnc(SCC(=O)NC3CCS(=O)(=O)C3)c2c1C (stereo not drawn) too.
-- reply inactive

-- ask Next compound up: CNc1ccc(-c2nc(-c3ccccc3C)no2)cc1[N+](=O)[O-]
-- reply inactive

-- ask Okay, and CS(=O)(=O)N1CCC[C@@]2(CCN(c3ccncc3)C2)C1 ?
-- reply inactive

-- ask Now this one: CC(=O)Nc1ccccc1-c1nc(CNC(=O)c2ccc(Cl)cc2)c(C)o1
-- reply inactive

-- ask Next up: COc1ccc(CCNC2=C(Cl)C(=O)N(Cc3ccccc3)C2=O)cc1OC
-- reply active

-- ask And the next one, CCC(=O)N1CCc2cc(CNS(=O)(=O)c3ccc(Br)s3)ccc21 ?
-- reply inactive

-- ask Next record, please: O=C(CSc1ncc(CO)n1Cc1ccc(Cl)cc1)NCc1ccc(F)cc1
-- reply inactive

-- ask Field entry: COc1ccc(-n2c(=O)c(-c3cn(C)c4ccccc34)nc3cnc(OC)nc32)cc1
-- reply inactive

-- ask Same for O=C(c1cn(CC2CCCN(Cc3cc4ccccc4s3)C2)nn1)N1CCCC1 (stereo not drawn)
-- reply inactive

-- ask Same lookup for Cn1c(=O)[nH]c(=O)c2c1nc(Br)n2CCCCSc1nc2ccccc2o1 , please.
-- reply active

-- ask Same lookup for COCCCNC(=O)c1ccc(-c2c(C)noc2C)c2ccoc12 , please.
-- reply inactive

-- ask Follow-up item: OC(COc1ccc(CN2CCSCC2)cc1)CN1CCCCC1 (stereo not drawn)
-- reply inactive

-- ask Thanks! And OC(CN=c1sc2ccccc2n1CC(O)COc1ccccc1)COc1ccccc1 (stereo not drawn) ?
-- reply active

-- ask Thanks! And Cc1ccc(NC(=O)c2cnc(SCC(=O)NCC3CCCO3)n(C)c2=O)cc1 (stereo not drawn) ?
-- reply active

-- ask Now the compound Cc1sc2ncnc(N3CCC(C(=O)NNC(=O)c4ccc(F)cc4)CC3)c2c1C
-- reply active

-- ask Repeat with COc1ccc(Cl)cc1-n1c(CCC(=O)O)ccc1-c1ccc(C)cc1
-- reply inactive

-- ask Another compound to check: CN1CCC2(CC1)CCN(S(=O)(=O)c1ccccc1)CC2
-- reply inactive
